study_system: Cyclin-G-associated kinase (Homo sapiens, UniProt O14976)
Sequence (O14976 whole entry): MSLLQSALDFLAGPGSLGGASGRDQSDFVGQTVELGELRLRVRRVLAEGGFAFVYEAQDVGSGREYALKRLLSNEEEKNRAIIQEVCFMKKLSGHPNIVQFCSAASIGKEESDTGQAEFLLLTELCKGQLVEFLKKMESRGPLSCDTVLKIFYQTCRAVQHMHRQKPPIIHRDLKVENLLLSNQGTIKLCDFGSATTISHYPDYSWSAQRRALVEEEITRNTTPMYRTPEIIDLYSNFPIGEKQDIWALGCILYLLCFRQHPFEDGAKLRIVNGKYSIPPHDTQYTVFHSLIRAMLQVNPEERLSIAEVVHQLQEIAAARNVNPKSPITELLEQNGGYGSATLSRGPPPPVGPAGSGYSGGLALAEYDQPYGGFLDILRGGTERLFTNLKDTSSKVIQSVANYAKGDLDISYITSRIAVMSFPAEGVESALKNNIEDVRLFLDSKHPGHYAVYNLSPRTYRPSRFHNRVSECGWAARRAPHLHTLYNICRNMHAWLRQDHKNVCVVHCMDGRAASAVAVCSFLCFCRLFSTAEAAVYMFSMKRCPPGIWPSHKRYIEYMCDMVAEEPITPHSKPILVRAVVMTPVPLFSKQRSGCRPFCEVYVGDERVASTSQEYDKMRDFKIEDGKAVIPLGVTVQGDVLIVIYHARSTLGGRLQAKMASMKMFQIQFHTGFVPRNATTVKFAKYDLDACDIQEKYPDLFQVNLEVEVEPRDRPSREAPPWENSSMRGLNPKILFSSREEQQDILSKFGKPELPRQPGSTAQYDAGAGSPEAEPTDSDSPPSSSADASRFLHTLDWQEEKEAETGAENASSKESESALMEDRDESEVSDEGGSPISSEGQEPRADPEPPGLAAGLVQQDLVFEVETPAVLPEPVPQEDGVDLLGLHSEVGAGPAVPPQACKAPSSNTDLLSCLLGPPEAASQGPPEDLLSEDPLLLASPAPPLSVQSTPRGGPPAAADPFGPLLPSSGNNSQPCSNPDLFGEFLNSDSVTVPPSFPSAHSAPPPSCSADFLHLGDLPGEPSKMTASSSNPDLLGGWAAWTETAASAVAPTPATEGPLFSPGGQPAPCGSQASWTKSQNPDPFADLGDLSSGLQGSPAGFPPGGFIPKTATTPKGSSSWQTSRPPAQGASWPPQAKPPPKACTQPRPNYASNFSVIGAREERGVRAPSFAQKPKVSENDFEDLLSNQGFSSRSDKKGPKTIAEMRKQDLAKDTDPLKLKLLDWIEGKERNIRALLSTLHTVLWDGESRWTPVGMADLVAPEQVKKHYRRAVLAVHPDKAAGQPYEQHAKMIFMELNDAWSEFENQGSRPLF
pIC50: −log10 of the molar value.
endpoint_label: pIC50

| structure_as_smiles | reported_measurement |
| --- | --- |
| CC(C)C[C@H](N)c1cc(C#N)c2cc(-c3ccncc3)ccc2n1 | < 6.00 |

* * *

Here the recorded Kp uu is given for each entry.
test_description: Unbound brain to plasma concentration ratio in C57BL6 mouse at 30 mg/kg, sc
Assay type: ADME, organism-based
setup_conditions: read-out: K(p,uu,brain)

| structure_as_smiles | Kp uu |
| --- | --- |
| CC(C)C[C@@H](N)c1cc(C#N)c2cc(-c3ccncc3)ccc2n1 | 0.4 |
| CC(C)C[C@H](N)c1cc(C#N)c2cc(-c3ccncc3)ccc2n1 | 0.4 |

* * *

test_description: Plasma protein binding in rat assessed as unbound fraction at 10 uM incubated for 5 hrs by rapid equlibrium dialysis based LC-MS/MS method

| structure_as_smiles | fraction unbound at 5 h, 10 µM |
| --- | --- |
| CCc1nc([C@@H](N)CC(C)C)nc2ccc(-c3cnco3)cc12 | 0.25 |
| CC(C)C[C@H](N)c1cc(C#N)c2cc(-c3cnco3)ccc2n1 | 0.009 |
| CCc1nc([C@@H](N)CC(C)C)nc2cc(OC)c(-c3cnco3)cc12 | 0.077 |
| CC(C)C[C@@H](N)c1cc(C#N)c2cc(-c3ccncc3)ccc2n1 | 0.045 |
| CC(C)C[C@H](N)c1cc(C#N)c2cc(-c3ccncc3)ccc2n1 | 0.054 |

* * *

test_description: Brain concentration in C57BL6 mouse at 60 mg/kg, sc by LC-MS analysis
Type: ADME, organism-based
setup_conditions: in vivo, read-out: Ct
endpoint_label: concentration (µM)

| structure_as_smiles | endpoint_label | reported_measurement |
| --- | --- | --- |
| CC(C)C[C@@H](N)C(=O)Nc1ccc(-c2cnco2)c(OC(F)F)c1 | concentration | 27 |

* * *

Measured log10 IC50 (UniProt:Q2M2I8)
endpoint_label: log10 IC50 (log10 of the value in nM)

| molecule | study_system | log10 IC50 |
| --- | --- | --- |
| CCc1nc(C(N)CC(C)C)nc2ccc(-c3ccncc3)cc12 (stereo unspecified) | UniProt:Q2M2I8 | 1.64 |
| CCc1nc([C@@H](N)CC(C)C)nc2ccc(-c3cnco3)cc12 | UniProt:Q2M2I8 | 1.48 |
| COc1cc2nc(C(N)CC(C)C)nc(C#N)c2cc1-c1cnco1 (stereo unspecified) | UniProt:Q2M2I8 | 0.79 |
| CCOc1nc(C(N)CC(C)C)nc2ccc(-c3cnco3)cc12 (stereo unspecified) | UniProt:Q2M2I8 | 2.53 |
| CC(C)CC(N)c1ccc2cc(-c3ccncc3)ccc2n1 (stereo unspecified) | UniProt:Q2M2I8 | 1.32 |
| CC(C)C[C@H](N)c1cc(C#N)c2cc(-c3cnco3)ccc2n1 | UniProt:Q2M2I8 | 0.62 |

* * *

test_description: Ratio of drug concentration in brain to plasma in C57BL6 mouse at 60 mg/kg, sc
Type: ADME, organism-based
setup_conditions: read-out: BPR

| structure_as_smiles | Kp |
| --- | --- |
| CC(C)C[C@@H](N)C(=O)Nc1ccc(-c2cnco2)c(OC(F)F)c1 | 0.7 |

* * *

test_description: Metabolic stability in human liver microsomes assessed as parent compound remaining at 0.5 uM incubated for 10 mins in presence of NADPH by LC-MS/MS analysis
Assay type: ADME, Microsome
setup_conditions: read-out: Stability
endpoint_label: remaining at 10 min, 0.5 µM (%)

| structure_as_smiles | reported_measurement |
| --- | --- |
| CC(C)C[C@H](N)c1cc(C#N)c2cc(-c3ccncc3)ccc2n1 | 72 |
| CCc1nc([C@@H](N)CC(C)C)nc2ccc(-c3cnco3)cc12 | 62 |
| CC(C)C[C@@H](N)c1cc(C#N)c2cc(-c3ccncc3)ccc2n1 | 83 |
| CC(C)C[C@H](N)c1cc(C#N)c2cc(-c3cnco3)ccc2n1 | 76 |
| CCc1nc([C@@H](N)CC(C)C)nc2cc(OC)c(-c3cnco3)cc12 | 83 |

* * *

test_description: Plasma protein binding in mouse assessed as unbound fraction at 10 uM incubated for 5 hrs by rapid equlibrium dialysis based LC-MS/MS method
fraction unbound at 5 h, 10 µM: recorded values

| structure_as_smiles | fraction unbound at 5 h, 10 µM |
| --- | --- |
| CCc1nc([C@@H](N)CC(C)C)nc2cc(OC)c(-c3cnco3)cc12 | 0.1 |
| CC(C)C[C@H](N)c1cc(C#N)c2cc(-c3cnco3)ccc2n1 | 0.03 |
| CCc1nc([C@@H](N)CC(C)C)nc2ccc(-c3cnco3)cc12 | 0.11 |
| CC(C)C[C@H](N)c1cc(C#N)c2cc(-c3ccncc3)ccc2n1 | 0.14 |
| CC(C)C[C@@H](N)c1cc(C#N)c2cc(-c3ccncc3)ccc2n1 | 0.13 |

* * *

// values below are IC50; system is AP2-associated protein kinase 1 (Homo sapiens, UniProt Q2M2I8)
Sequence (Q2M2I8 whole entry): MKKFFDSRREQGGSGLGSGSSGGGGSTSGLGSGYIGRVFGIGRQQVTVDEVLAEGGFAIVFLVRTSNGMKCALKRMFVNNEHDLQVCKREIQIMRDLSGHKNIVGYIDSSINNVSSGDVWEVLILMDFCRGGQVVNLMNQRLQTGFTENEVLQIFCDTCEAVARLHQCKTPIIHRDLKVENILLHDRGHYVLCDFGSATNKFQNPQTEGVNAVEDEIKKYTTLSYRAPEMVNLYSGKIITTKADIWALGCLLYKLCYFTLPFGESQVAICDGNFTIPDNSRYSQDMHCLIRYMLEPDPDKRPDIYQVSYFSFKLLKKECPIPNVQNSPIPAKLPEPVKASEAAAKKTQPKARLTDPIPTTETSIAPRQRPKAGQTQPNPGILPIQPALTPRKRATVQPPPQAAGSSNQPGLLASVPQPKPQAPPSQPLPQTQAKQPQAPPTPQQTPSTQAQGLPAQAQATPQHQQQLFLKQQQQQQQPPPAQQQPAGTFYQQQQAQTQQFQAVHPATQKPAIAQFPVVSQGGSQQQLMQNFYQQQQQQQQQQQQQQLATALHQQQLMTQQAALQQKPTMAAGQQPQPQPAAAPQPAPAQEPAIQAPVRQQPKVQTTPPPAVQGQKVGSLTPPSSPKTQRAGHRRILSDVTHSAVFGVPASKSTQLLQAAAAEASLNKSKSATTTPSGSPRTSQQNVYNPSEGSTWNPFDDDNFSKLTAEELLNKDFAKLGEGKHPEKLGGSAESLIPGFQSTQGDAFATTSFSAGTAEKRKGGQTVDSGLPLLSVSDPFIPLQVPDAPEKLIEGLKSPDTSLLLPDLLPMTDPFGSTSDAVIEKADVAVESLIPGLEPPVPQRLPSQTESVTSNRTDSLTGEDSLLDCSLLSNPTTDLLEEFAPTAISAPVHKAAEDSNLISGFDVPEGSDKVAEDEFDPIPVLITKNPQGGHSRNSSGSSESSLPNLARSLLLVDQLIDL
endpoint_label: IC50

| molecule | reported_measurement |
| --- | --- |
| CC(C)CC(N)c1cc(C#N)c2cc(-c3ccncc3)ccc2n1 (stereo unspecified) | 7.3 nM |
| CC(C)C[C@H](N)c1cc(C#N)c2cc(-c3ccncc3)ccc2n1 | 5.8 nM |
| CCc1nc([C@H](N)CC(C)C)nc2ccc(-c3cnco3)cc12 | 220 nM |
| CCNc1nc(C(N)CC(C)C)nc2ccc(-c3cnco3)cc12 (stereo unspecified) | 1100 nM |
| CCc1nc([C@@H](N)CC(C)C)nc2cc(OC)c(-c3cnco3)cc12 | 12 nM |
| CC(C)CC(N)c1nc(C#N)c2cc(-c3ccncc3)ccc2n1 (stereo unspecified) | 16 nM |

* * *

study_system: Serine/threonine-protein kinase 16 (Homo sapiens, UniProt O75716)
Sequence (O75716 whole entry): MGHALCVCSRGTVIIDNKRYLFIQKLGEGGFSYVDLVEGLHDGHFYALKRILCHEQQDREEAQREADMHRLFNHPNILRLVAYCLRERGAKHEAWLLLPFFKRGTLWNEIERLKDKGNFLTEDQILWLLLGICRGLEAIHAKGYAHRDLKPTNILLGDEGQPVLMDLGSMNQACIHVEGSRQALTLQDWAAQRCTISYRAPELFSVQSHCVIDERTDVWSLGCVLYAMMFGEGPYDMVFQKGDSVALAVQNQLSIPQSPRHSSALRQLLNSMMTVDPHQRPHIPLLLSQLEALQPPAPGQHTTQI
pIC50: −log10 of the molar value.
endpoint_label: pIC50

| structure_as_smiles | reported_measurement |
| --- | --- |
| CC(C)C[C@H](N)c1cc(C#N)c2cc(-c3ccncc3)ccc2n1 | < 6.00 |

* * *

test_description: Ratio of drug concentration in brain to plasma in C57BL6 mouse at 30 mg/kg, sc
Type: ADME, organism-based
setup_conditions: read-out: BPR
Property: Kp; scope: individual molecules

| structure_as_smiles | Kp |
| --- | --- |
| CC(C)C[C@H](N)c1cc(C#N)c2cc(-c3ccncc3)ccc2n1 | 1.5 |
| CC(C)C[C@@H](N)c1cc(C#N)c2cc(-c3ccncc3)ccc2n1 | 1.3 |

* * *

study_system: Serine/threonine-protein kinase Chk1 (Homo sapiens)
Sequence (O14757 whole entry): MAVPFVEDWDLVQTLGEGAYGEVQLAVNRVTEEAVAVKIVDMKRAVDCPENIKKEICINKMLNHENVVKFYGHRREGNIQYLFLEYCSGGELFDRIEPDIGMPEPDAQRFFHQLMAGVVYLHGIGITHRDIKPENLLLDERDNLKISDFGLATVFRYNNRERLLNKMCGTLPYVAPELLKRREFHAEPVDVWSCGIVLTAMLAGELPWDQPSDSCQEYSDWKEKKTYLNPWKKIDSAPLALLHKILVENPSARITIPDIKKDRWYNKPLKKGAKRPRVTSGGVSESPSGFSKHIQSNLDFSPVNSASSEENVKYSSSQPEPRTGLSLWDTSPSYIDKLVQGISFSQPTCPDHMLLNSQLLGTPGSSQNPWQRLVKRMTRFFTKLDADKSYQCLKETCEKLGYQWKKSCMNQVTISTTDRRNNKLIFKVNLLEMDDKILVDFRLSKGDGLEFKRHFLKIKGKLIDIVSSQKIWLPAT
pIC50: −log10 of the molar value.

| structure_as_smiles | study_system | pIC50 |
| --- | --- | --- |
| CC(C)C[C@H](N)c1cc(C#N)c2cc(-c3ccncc3)ccc2n1 | Serine/threonine-protein kinase Chk1 (Homo sapiens) | 6.00 |

* * *

test_description: Permeability of the compound at pH 7.4 by PAMPA
Assay type: ADME
setup_conditions: read-out: permeability
Recorded Papp for the following compounds

| structure_as_smiles | Papp (×10⁻⁶ cm/s) |
| --- | --- |
| CC(C)C[C@H](N)c1cc(C#N)c2cc(-c3ccncc3)ccc2n1 | 96.9 |
| CC(C)C[C@@H](N)c1cc(C#N)c2cc(-c3ccncc3)ccc2n1 | 30.7 |
| CC(C)C[C@H](N)c1cc(C#N)c2cc(-c3cnco3)ccc2n1 | 93 |
| CCc1nc([C@@H](N)CC(C)C)nc2ccc(-c3cnco3)cc12 | 90.7 |
| CC(C)C[C@@H](N)C(=O)Nc1ccc(-c2cnco2)c(OC(F)F)c1 | 91.8 |
| CCc1nc([C@@H](N)CC(C)C)nc2cc(OC)c(-c3cnco3)cc12 | 78.5 |

* * *

study_system: AP2-associated protein kinase 1 (Homo sapiens)
test_description: Inhibition of full length human AAK1 expressed in HEK293F incubated for 3 hrs by Western blot analysis
Format: cell-based

| structure_as_smiles | unit_tag | IC50 |
| --- | --- | --- |
| CC(C)C[C@H](N)c1cc(C#N)c2cc(-c3ccncc3)ccc2n1 | µM | 0.019 |
| CCc1nc([C@@H](N)CC(C)C)nc2ccc(-c3cnco3)cc12 | µM | 0.049 |
| CC(C)C[C@@H](N)c1cc(C#N)c2cc(-c3ccncc3)ccc2n1 | µM | 0.108 |
| CCc1nc([C@@H](N)CC(C)C)nc2cc(OC)c(-c3cnco3)cc12 | µM | 0.034 |
| CC(C)C[C@H](N)c1cc(C#N)c2cc(-c3cnco3)ccc2n1 | µM | 0.032 |

* * *

test_description: Permeability of the compound at pH 5.5 by PAMPA
Format: ADME
setup_conditions: read-out: permeability
endpoint_label: Papp (×10⁻⁶ cm/s)

| structure_as_smiles | endpoint_label | reported_measurement |
| --- | --- | --- |
| CC(C)C[C@H](N)c1cc(C#N)c2cc(-c3ccncc3)ccc2n1 | Papp | 112 |
| CCc1nc([C@@H](N)CC(C)C)nc2cc(OC)c(-c3cnco3)cc12 | Papp | 80.3 |
| CC(C)C[C@@H](N)c1cc(C#N)c2cc(-c3ccncc3)ccc2n1 | Papp | 40 |
| CCc1nc([C@@H](N)CC(C)C)nc2ccc(-c3cnco3)cc12 | Papp | 93.5 |
| CC(C)C[C@@H](N)C(=O)Nc1ccc(-c2cnco2)c(OC(F)F)c1 | Papp | 96.7 |
